# assayed.system: Short transient receptor potential channel 6 (Mus musculus)
# test.details: mouse TRPC6 channel inhibitors, primary screen, cell-based, HEK293, membrane potential dye (AID 2553);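 for B-score: B-score derived from integrated fluorescence ratio over the kinetic read; more negative B-score means stronger inhibition of depolarization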
# condition.notes: ACh-evoked depolarization, at 10 µM; hits give low values
In all, about 310,000 compounds went through this assay and about 3,300 (1.1%) were called active. This is one part of a sample in which actives are shown more often than they occur.
value.kind: B-score

CCOC(=O)CCc1c(C)c(C#N)c2[nH]c3ccccc3n2c1=O    inactive
CC1CCC(NS(=O)(=O)c2ccc3c(c2)CC(=O)N3)CC1 (stereo unspecified)    inactive
CCCc1cc(=S)n2c([nH]c3ccccc32)c1C#N    -12.9 (active)
COc1ccc(C(=O)NC2CCN(C(=O)Nc3ccc(F)cc3)CC2)cc1    inactive

input: What is its B-score for Short transient receptor potential channel 6 (Mus musculus)? Entry: CN(C)c1ccc(C2N(C)C(=O)c3ccccc3N2C)cc1 (stereo unspecified)
output: -7.38 (active)

input: Request: B-score, test system Short transient receptor potential channel 6 (Mus musculus), entry "CN1CCN(C(=O)c2ccc(NS(=O)(=O)c3ccccc3)cc2)CC1"
output: inactive

input: Give recorded B-score with Short transient receptor potential channel 6 (Mus musculus) for the following compound: "COc1ccc(Br)cc1/C=N/n1c(C)nnc1C"
output: -5.36 (active)

input: Query the reported B-score for Short transient receptor potential channel 6 (Mus musculus); item: "COCC(=O)Nc1cc(C(=O)OC)cc(C(=O)OC)c1"
output: inactive

====

# assayed.system: Short transient receptor potential channel 6 (Mus musculus)
# test.details: mouse TRPC6 channel inhibitors, primary screen, cell-based, HEK293, membrane potential dye (AID 2553)
# condition.notes: ACh-evoked depolarization, at 10 µM
The whole screen tested about 310,000 compounds, of which about 3,300 (1.1%) were called active.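 The calls were made as follows: active = B-score under library mean minus 3 SD, initial fluorescence not abnormally high, positive integrated signal ratio; inactive = the rest.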 What follows is part of a selection rich in actives, with near analogues and random picks from the rest.
Respond only with the outcome that fits, drawn from Y for active, N for inactive

The following compounds have reported results that may help.
CCOC(=O)c1cc(NC(=O)c2ccc(Cl)cc2)c(=O)oc1-c1ccccc1    N
O=C(COc1ccccc1)Nc1ccc(N2CCN(C(=O)c3cccs3)CC2)cc1    N
O=C(O)CSCc1ccc(C(=O)O)o1    N
Cc1ccc(NC(=O)COC(=O)CNC(=O)c2ccc(Cl)cc2Cl)cc1S(=O)(=O)N1CCOCC1    N
CCOC(=O)c1[nH]ncc1CN1CCCC(C(=O)c2ccc(OC)cc2C)C1 (stereo not given)    N
COc1ccc2[nH]cc(CCN3C(=O)c4ccc(C(=O)O)cc4C3=O)c2c1    N
CC(C)CCNc1nc(N2CCCC2)c2c(c1C#N)CCN(C)C2    Y
CCC(C)(C)c1ccc(OCC(=O)N(C)C)c(C(C)(C)CC)c1    N
CC(Sc1nnc(CNC(=O)c2ccccc2F)n1C)C(=O)Nc1nccs1 (stereo not given)    N
CCCC(=O)Nc1ccc(C(=O)NCCCn2ccnc2)cc1    Y

input: // param item: "CCNC(=O)Nc1ccc(S(=O)(=O)Nc2cnc(C)nc2C)cc1" ; yields the recorded call
output: N

input: # outcome recorded in this test, key = "CCN(CCCNC(=O)c1ccc2c(c1)NC(=O)CN2C)c1cccc(C)c1"
output: N

input: # fetch the recorded call for Cc1cc(NC(=O)C(C)SCC(=O)Nc2ccccc2N2CCCCC2)no1 (stereo not given) here
output: N

input: What did the test return for "CCCCCOc1ccc(CSC2=NCCN2)cc1[N+](=O)[O-]" ?
output: Y

input: Which outcome did this test record for the compound "Nc1nc(NCCCN2CCOCC2)nc(Nc2ccccc2)c1[N+](=O)[O-]" ?
output: N

input: Short answer needed: outcome of this test for "O=C(CSc1nnnn1C1CCCC1)N1CCCCC1" ?
output: N
